Reference source for all entries: ChEMBL document CHEMBL1144487

Assay: Differential index, LC50 for rat NRK 52E cells to LC50 for rat N-ras transformed NRK N/4.2 cells
Format: ADME, cell-based
Conditions: NRK 52E cells versus N-ras transformed NRK N/4.2 cells
metric: selectivity ratio

Recorded results for 4 compounds are shown here.
CC(=O)NC1=CC(=O)c2ccc(-c3nc(C(=O)OCCC(C)C)c(C)c4c3[nH]c3ccccc34)nc2C1=O :: 1.2
CCCCCCCCOC(=O)c1cc2c([nH]c3ccccc32)c(-c2ccc3c(n2)C(=O)C(NC(=O)CCl)=CC3=O)n1 :: 1
CC(=O)NC1=CC(=O)c2ccc(-c3nc(C(=O)OCc4ccccc4)cc4c3[nH]c3ccccc34)nc2C1=O :: < 0.3
CCCCOC(=O)c1cc2c([nH]c3ccccc32)c(-c2ccc3c(n2)C(=O)C(NC(=O)C(C)C)=CC3=O)n1 :: 1.8

Qu. Could you share which selectivity ratio value was measured for `COC(=O)c1nc(-c2ccc3c(n2)C(=O)C(NC(=O)CCl)=CC3=O)c2[nH]c3ccccc3c2c1C` ?
Ans. 0.8

Qu. Check `CC(=O)NC1=CC(=O)c2ccc(-c3[nH]c(C(N)=O)cc4c5ccccc5nc3-4)nc2C1=O` too.
Ans. 4.1

Qu. Same question for `CCCCOC(=O)c1cc2c([nH]c3ccccc32)c(-c2ccc3c(n2)C(=O)C(NC(=O)CCC)=CC3=O)n1` please.
Ans. 0.9

====

Test: Differential index, LC50 for rat NRK 52E cells to LC50 for rat K-ras transformed NRK K/1 cells
Type: ADME, cell-based
Conditions: NRK 52E cells versus K-ras transformed NRK K/1 cells
metric: selectivity ratio
Give a plain numeric answer without units written out.

Take a look at these entries with their results.
COC(=O)c1cc2c([nH]c3ccccc32)c(-c2ccc3c(n2)C(=O)C(NC(=O)C(C)C)=CC3=O)n1 :: 1.4
CCCCOC(=O)c1cc2c([nH]c3ccccc32)c(-c2ccc3c(n2)C(=O)C(NC(=O)CCl)=CC3=O)n1 :: 1.8

Qu. Requested read-out: selectivity ratio. Entry: `CC(=O)NC1=CC(=O)c2ccc(-c3[nH]c(C(N)=O)cc4c5ccccc5nc3-4)nc2C1=O`
Ans. 2.5

====

Assay: Cytotoxicity against mouse 3LL cells after 5 days
Format: cell-based
Conditions: 120 h, read-out: LC50 (the source's name)
metric: CC50

Answered cases to consult:
CCCCCCCCOC(=O)c1cc2c([nH]c3ccccc32)c(-c2ccc3c(n2)C(=O)C(NC(=O)CCl)=CC3=O)n1 :: > 33 µM
CC(=O)NC1=CC(=O)c2ccc(-c3nc(C(=O)OCc4ccccc4)cc4c3[nH]c3ccccc34)nc2C1=O :: > 33 µM
CC(=O)NC1=CC(=O)c2nc(C)ccc2C1=O :: > 33 µM

Qu. Quick one: CC50 of `CCCCOC(=O)c1cc2c([nH]c3ccc(OC)cc32)c(-c2ccc3c(n2)C(=O)C(NC(C)=O)=CC3=O)n1` ?
Ans. > 3.3 µM

Qu. Request: `COC(=O)c1[nH]c(-c2ccc3c(n2)C(=O)C(NC(C)=O)=CC3=O)c2nc3ccccc3c-2c1C`
Ans. > 33 µM

====

Overview of reported CC50 at 120 h across a group of molecules:
Test: Cytotoxicity against rat NRK 52E cells after 5 days
Assay type: cell-based
Conditions: read-out: LC50
Give the quantity in µM, number only.

Known results for molecules:
CC(=O)NC1=CC(=O)c2ccc(-c3[nH]c(C(N)=O)cc4c5ccccc5nc3-4)nc2C1=O :: 0.9
Cc1ccc2c(n1)C(=O)C(NC(=O)CCl)=CC2=O :: 3.2
COC(=O)c1[nH]c(-c2ccc3c(n2)C(=O)C(NC(C)=O)=CC3=O)c2nc3ccccc3c-2c1C :: 0.9
CCCC(=O)NC1=CC(=O)c2ccc(C=O)nc2C1=O :: 3
NC1=CC(=O)c2ccc(C=O)nc2C1=O :: 2.4

Qu. # query: CC50 at 120 h of entry `CC(=O)NC1=CC(=O)c2ccc(-c3[nH]c(C(=O)O)cc4c5ccccc5nc3-4)nc2C1=O`
Ans. 0.15

Qu. Try this molecule too: `Cc1ccc2c(n1)C(=O)C(N)=CC2=O`
Ans. 0.8

Qu. Consider next the molecule `CCCCOC(=O)c1cc2c([nH]c3ccc(OC)cc32)c(-c2ccc3c(n2)C(=O)C(NC(C)=O)=CC3=O)n1` in the same way.
Ans. 2.5

Qu. Now give it for `COC(=O)c1cc2c([nH]c3ccccc32)c(-c2ccc3c(n2)C(=O)C(NC(=O)C(C)C)=CC3=O)n1` too.
Ans. 0.7

====

Test: Differential index, LC50 for rat NRK 52E cells to LC50 for rat N-ras transformed NRK N/4.2 cells
Format: ADME, cell-based
Conditions: NRK 52E cells versus N-ras transformed NRK N/4.2 cells
Below, each entry is listed alongside its reported selectivity ratio.

Qu. Need selectivity ratio, item `CCCCOC(=O)c1cc2c([nH]c3ccccc32)c(-c2ccc3c(n2)C(=O)C(NC(=O)CCl)=CC3=O)n1`
Ans. 0.9

Qu. Try `CC(=O)NC1=CC(=O)c2ccc(-c3[nH]ccc4c5ccccc5nc3-4)nc2C1=O` next.
Ans. 0.8

Qu. How about `CC(=O)NC1=CC(=O)c2ccc(-c3nc(C(=O)OC4CCCCC4)cc4c3[nH]c3ccccc34)nc2C1=O` ?
Ans. 1

====

Experiment: Cytotoxicity against rat NRK 52E cells after 5 days
Assay type: cell-based
Conditions: read-out: LC50
This section presents molecules with their documented CC50 at 120 h values.

Examples from the recorded data:
CCCCCCCCOC(=O)c1cc2c([nH]c3ccccc32)c(-c2ccc3c(n2)C(=O)C(NC(C)=O)=CC3=O)n1 :: > 33 µM
CC(C)C(=O)NC1=CC(=O)c2ccc(C=O)nc2C1=O :: > 3.3 µM

Qu. I am curious: what CC50 at 120 h value has been reported for `CCCCCCCCOC(=O)c1cc2c([nH]c3ccccc32)c(-c2ccc3c(n2)C(=O)C(NC(=O)CCl)=CC3=O)n1` ?
Ans. > 33 µM
